- assayed.system: TNFα (Homo sapiens, UniProt P01375)
- Sequence (P01375 77-233 limits assumed): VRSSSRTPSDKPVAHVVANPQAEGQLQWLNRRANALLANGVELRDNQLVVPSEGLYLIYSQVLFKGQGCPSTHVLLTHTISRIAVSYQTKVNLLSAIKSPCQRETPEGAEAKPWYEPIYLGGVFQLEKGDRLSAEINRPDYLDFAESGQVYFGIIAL
- procedure.details: TNF induced HEK-Blue assay (NF-kB-driven secreted alkaline phosphatase reporter)
- Type: cell-based
- run.parameters: TNFα 0.5 ng/mL, HEK-Blue-CD40L cells, 18 h; read-out: TNF induced HEK-Blue assay IC50 value

| molecule | IC50 |
| --- | --- |
| CC(Nc1c(Cl)cnc2cc(F)c(-c3ccc(C(O)C4CC4)cc3)cc12)c1ccccc1F (centres unmarked) [Example 262] | 1 to 10 µM |
| COc1ccc(-c2ccc(F)c([C@@H](C)Nc3c(Cl)cnc4ccccc34)c2)cn1 [Example 460] | < 1 µM |
| CCC(Nc1c(Cl)cnc2ccc(-c3cnc(C(C)(C)O)nc3)cc12)c1nc(Br)ccc1F (racemic) [Example 64] | < 1 µM |
| CC(C)(O)c1ncc(-c2ccc3ncc(Cl)c(NC(C)(C)c4ccc(C(F)(F)F)cc4)c3c2)cn1 [Example 185] | 10 to 25 µM |
| C[C@@H](Nc1c(Cl)cnc2ccccc12)c1cc(-c2ccccc2N)ccc1F [Example 547] | 1 to 10 µM |
| Cc1nc2ccc(-c3cnc(N4CCNC(=O)C4)nc3)cc2c(N[C@H](C)c2cc(C(N)=O)ccc2F)c1Cl [Example 447] | < 1 µM |
| COc1ccncc1-c1ccc(F)c([C@@H](C)Nc2c(Cl)cnc3ccccc23)c1 [Example 548] | < 1 µM |
| Cc1c(-c2ccc(F)c([C@@H](C)Nc3c(Cl)cnc4ccccc34)c2)cnn1C [Example 474] | < 1 µM |
